Target: Env of HIV-1 strain X1254_c3 (HIV-1)
Assay: cell-based or functional assay
PARAMETER MEASURED: neutralization IC50 (µg/mL)
Numbers only, in µg/mL.

Here's what some known entries look like.
BINDER: γ23κ11 (antibody, V domains shown) VH: QIHLVQSGTEVKKPGSSVTVSCKAYGVNTFGLYAVNWVRQAPGQSLEYIGQIWRWKSSASHHFRGRVIISAVDLTGSSPPISSLEIKNLTSDDTAVYFCTTTSTSDYWSGLHHDGVMAFSSWGQGTLISVSA VL: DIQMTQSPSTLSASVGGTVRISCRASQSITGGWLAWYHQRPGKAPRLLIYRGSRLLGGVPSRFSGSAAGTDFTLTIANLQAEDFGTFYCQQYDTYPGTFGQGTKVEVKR
neutralization IC50 [µg/mL]: 1.7

BINDER: γ52κ18 (antibody, V domains shown) VH: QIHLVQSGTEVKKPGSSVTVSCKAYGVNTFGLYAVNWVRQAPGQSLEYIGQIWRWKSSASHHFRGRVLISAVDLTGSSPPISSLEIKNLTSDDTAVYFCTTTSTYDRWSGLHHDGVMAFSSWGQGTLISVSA VL: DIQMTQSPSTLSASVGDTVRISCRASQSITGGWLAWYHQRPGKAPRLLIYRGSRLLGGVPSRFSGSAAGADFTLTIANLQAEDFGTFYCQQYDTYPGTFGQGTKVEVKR
neutralization IC50 [µg/mL]: 1.57

BINDER: γ20κ11 (antibody, V domains shown) VH: QIHLVQSGTEVKKPGSSVAVSCKAYGVNTFGLYAVNWVRQAPGQSLEYIGQIWRWKSSASHDFRGRVIISAVDLTGSSPPISSLEIKNLTSDDTAVYFCTATSTPDYWSGLHHDGVMAFSSWGQGTLISVSA VL: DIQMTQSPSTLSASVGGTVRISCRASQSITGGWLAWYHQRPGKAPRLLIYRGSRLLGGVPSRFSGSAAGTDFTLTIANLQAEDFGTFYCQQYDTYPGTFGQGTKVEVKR
neutralization IC50 [µg/mL]: 7.5

// below: neutralization IC50 requested for another binder
Query string: Entry γ20κ19 (antibody, V domains shown) VH: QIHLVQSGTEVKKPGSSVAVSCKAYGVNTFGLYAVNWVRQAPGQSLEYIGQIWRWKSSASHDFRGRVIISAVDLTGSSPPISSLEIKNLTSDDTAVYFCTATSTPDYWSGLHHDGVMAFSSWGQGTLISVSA VL: DIQMTQSPSTLSASVGDTVRISCRASQSITGGWLAWYHQRPGKAPRLLIYRGSRLLGGVPSRFSGSAAGTGFTLTIANLQAEDFGTFYCQQYDTYPGTFGQGTKVEVKR : reported neutralization IC50 = ?
Result string: 2.99

Values were extracted from patent US20180171001A1.
